- subject-of-test: GSPT1 protein (Homo sapiens, UniProt P15170+Q96SW2)
- Construct: endogenous in cells; host or cells: Jeko-1
- Sequence (P15170 whole entry): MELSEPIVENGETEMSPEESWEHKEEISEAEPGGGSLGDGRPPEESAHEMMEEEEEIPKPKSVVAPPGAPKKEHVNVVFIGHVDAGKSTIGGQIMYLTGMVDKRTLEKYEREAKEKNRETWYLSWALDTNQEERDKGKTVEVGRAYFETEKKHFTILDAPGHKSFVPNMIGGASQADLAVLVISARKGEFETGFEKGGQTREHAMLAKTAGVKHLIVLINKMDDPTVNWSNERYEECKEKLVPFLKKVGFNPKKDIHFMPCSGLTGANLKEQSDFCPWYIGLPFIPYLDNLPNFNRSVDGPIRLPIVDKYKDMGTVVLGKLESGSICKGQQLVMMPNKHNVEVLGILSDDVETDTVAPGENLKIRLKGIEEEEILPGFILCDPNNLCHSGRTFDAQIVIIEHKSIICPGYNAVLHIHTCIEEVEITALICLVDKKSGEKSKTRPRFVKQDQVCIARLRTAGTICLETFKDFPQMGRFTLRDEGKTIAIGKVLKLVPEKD
- Sequence (Q96SW2 whole entry): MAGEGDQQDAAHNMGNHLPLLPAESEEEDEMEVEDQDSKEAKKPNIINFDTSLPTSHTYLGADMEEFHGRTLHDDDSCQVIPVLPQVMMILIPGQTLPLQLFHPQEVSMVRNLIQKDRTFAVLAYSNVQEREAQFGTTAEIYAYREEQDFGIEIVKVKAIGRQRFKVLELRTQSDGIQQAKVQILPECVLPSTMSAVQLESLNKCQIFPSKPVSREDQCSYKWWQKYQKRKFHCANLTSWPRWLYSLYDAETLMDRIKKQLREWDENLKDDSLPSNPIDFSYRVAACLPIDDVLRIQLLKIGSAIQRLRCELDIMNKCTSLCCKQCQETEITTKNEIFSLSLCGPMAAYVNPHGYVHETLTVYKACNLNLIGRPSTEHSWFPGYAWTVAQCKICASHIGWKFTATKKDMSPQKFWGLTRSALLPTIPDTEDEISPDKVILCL
- Sequence (Q16531 whole entry partner): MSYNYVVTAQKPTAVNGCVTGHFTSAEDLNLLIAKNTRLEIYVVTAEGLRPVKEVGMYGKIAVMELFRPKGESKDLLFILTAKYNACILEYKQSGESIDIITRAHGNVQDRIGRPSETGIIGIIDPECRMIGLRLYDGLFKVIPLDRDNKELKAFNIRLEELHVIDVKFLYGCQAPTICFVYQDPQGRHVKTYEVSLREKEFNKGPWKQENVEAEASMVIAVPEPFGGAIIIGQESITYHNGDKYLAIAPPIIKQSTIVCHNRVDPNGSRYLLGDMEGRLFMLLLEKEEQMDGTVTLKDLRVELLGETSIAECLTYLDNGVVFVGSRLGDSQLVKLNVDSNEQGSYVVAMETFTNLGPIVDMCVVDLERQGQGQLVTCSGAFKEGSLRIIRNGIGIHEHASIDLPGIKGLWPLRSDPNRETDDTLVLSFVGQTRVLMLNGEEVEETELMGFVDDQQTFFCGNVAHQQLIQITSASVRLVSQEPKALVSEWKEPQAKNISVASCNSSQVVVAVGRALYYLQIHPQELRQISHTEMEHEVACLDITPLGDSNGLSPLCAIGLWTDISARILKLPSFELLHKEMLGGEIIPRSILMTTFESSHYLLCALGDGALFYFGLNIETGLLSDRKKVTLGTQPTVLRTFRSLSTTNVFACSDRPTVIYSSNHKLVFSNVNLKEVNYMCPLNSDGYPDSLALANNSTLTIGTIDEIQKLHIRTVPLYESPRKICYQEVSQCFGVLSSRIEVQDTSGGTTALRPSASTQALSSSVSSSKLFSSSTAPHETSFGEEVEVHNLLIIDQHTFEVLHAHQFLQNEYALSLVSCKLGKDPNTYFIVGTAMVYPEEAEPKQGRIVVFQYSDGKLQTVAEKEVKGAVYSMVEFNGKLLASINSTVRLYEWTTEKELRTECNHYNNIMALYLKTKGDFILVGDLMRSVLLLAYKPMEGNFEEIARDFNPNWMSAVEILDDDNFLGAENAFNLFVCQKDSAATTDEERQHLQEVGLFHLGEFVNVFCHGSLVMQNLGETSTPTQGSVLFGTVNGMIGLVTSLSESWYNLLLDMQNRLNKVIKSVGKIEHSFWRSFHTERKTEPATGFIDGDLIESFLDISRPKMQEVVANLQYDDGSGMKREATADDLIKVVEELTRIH
- test-method-notes: Western blot detection of degradation activity of GSPT1 protein in Jeko-1 cells
- Type: cell-based
- condition-label: JeKo-1, 24 h, 100 nM, Jeko-1 cells, 24 hours; read-out: GSPT1 degradation rate (%)
parameter-measured: inhibition at 0.1 µM (%)

Sample answers from the record:
[
  {
    "compound": "O=C1CCC(N2Cc3cc(CNC(=O)C(CNC(=O)C4CCCC4)c4ccccc4)ccc3C2=O)C(=O)N1 (centres unmarked)",
    "result-number": 26.1
  },
  {
    "compound": "CC(C)(C)OC(=O)N[C@H](Cc1ccccc1)C(=O)NCc1ccc2c(c1)CN(C1CCC(=O)NC1=O)C2=O (some centres unmarked)",
    "result-number": 93
  },
  {
    "compound": "CC(C)(C)OC(=O)N[C@H](C(=O)NCc1ccc2c(c1)CN(C1CCC(=O)NC1=O)C2=O)c1ccccc1 (some centres unmarked)",
    "result-number": 89
  },
  {
    "compound": "CC(C)(C)OC(=O)N[C@H](C(=O)NCc1ccc2c(c1)CN(C1CCC(=O)NC1=O)C2=O)C1CCCCC1 (some centres unmarked)",
    "result-number": 18.8
  },
  {
    "compound": "CC(C)(C)OC(=O)O[C@H](C(=O)NCc1ccc2c(c1)CN(C1CCC(=O)NC1=O)C2=O)c1ccccc1 (some centres unmarked)",
    "result-number": 29.8
  },
  {
    "compound": "CC(C)(C)NC(=O)NCC(C(=O)NCc1ccc2c(c1)CN(C1CCC(=O)NC1=O)C2=O)c1ccccc1 (centres unmarked)",
    "result-number": 18
  },
  {
    "compound": "CN(C(=O)OC(C)(C)C)[C@@H](C(=O)NCc1ccc2c(c1)CN(C1CCC(=O)NC1=O)C2=O)c1ccccc1 (some centres unmarked)",
    "result-number": 84
  },
  {
    "compound": "CC(C)(C)OC(=O)NCC(C(=O)NCc1ccc2c(c1)CN(C1CCC(=O)NC1=O)C2=O)C1CCCCC1 (centres unmarked)",
    "result-number": 85.1
  },
  {
    "compound": "O=C1CCC(N2Cc3cc(CNC(=O)C(CNC(=O)C4CCCC4)C4CCCCC4)ccc3C2=O)C(=O)N1 (centres unmarked)",
    "result-number": 36
  },
  {
    "compound": "CC(C)(C)OC(=O)N[C@@H](CC1CCCCC1)C(=O)NCc1ccc2c(c1)CN(C1CCC(=O)NC1=O)C2=O (some centres unmarked)",
    "result-number": 90.6
  }
]

[a] CC(C)(C)OC(=O)NCC(C(=O)NCc1ccc2c(c1)CN(C1CCC(=O)NC1=O)C2=O)c1ccccc1 (centres unmarked)
[b] CC(C)(C)OC(=O)NC(CC(=O)NCc1ccc2c(c1)CN(C1CCC(=O)NC1=O)C2=O)c1ccccc1 (centres unmarked)
Compare a and b and name the one whose reported inhibition at 0.1 µM is smaller. Selection: enter the item's label. b
(b: 51%, a: 96%)

[P] CC(C)(C)OC(=O)N[C@H](C(=O)NCc1ccc2c(c1)CN(C1CCC(=O)NC1=O)C2=O)C1CCCC1 (some centres unmarked)
[Q] O=C1CCC(N2Cc3cc(CNC(=O)[C@@H](CNC(=O)C4CCCC4)c4ccccc4)ccc3C2=O)C(=O)N1 (some centres unmarked)
Compare P and Q and name the one whose reported inhibition at 0.1 µM is smaller. Selection: enter the item's label. Q
(Q: 16%, P: 75%)

###

- subject-of-test: GSPT1 protein (Homo sapiens, UniProt P15170+Q96SW2)
- Construct: endogenous in cells; host or cells: Jeko-1
- test-method-notes: Western blot detection of degradation activity of GSPT1 protein in Jeko-1 cells
- Format: cell-based
- condition-label: JeKo-1, 24 h, 10 μM, Jeko-1 cells, 24 hours; read-out: GSPT1 degradation rate (%)
parameter-measured: inhibition at 10 µM (%)

[
  {
    "molecule": "CC(C)(C)NC(=O)NCC(C(=O)NCc1ccc2c(c1)CN(C1CCC(=O)NC1=O)C2=O)c1ccccc1 (stereo not shown) [Compound 5-12]",
    "result-number": 71
  }
]

[a] CC(C)(C)OC(=O)N[C@H](C(=O)NCc1ccc2c(c1)CN(C1CCC(=O)NC1=O)C2=O)c1ccccc1 (stereo partly shown) [Compound 4-87]
[b] CC(C)(C)NC(=O)NCC(Cc1ccccc1)C(=O)NCc1ccc2c(c1)CN(C1CCC(=O)NC1=O)C2=O (stereo not shown) [Compound 4-188]
Which numeric inhibition at 10 µM is bigger, that of a or that of b ? Selection: enter the item's label. a
(a: 93%, b: 63%)

###

- subject-of-test: GSPT1 protein (Homo sapiens, UniProt P15170+Q96SW2)
- Construct: endogenous in cells; host or cells: Jeko-1
- test-method-notes: Western blot detection of degradation activity of GSPT1 protein in Jeko-1 cells
- Format: cell-based
- condition-label: JeKo-1, 24 h, read-out: GSPT1 degradation rate (%)
Reported inhibition at 10 µM is given for each of the following molecules.
Unit % implied. Number only.

Sample answers from the record:
[
  {
    "molecule": "CC(C)OC(=O)N[C@H](C(=O)NCc1ccc2c(c1)CN(C1CCC(=O)NC1=O)C2=O)c1ccccc1 (stereo partly drawn)",
    "units": "%",
    "inhibition at 10 µM": 89
  },
  {
    "molecule": "O=C1CCC(N2Cc3cc(CNC(=O)C(CNC(=O)c4ccccc4)c4ccccc4)ccc3C2=O)C(=O)N1 (stereo not drawn)",
    "units": "%",
    "inhibition at 10 µM": 98
  },
  {
    "molecule": "CC(C)OC(=O)N[C@H](Cc1ccccc1)C(=O)NCc1ccc2c(c1)CN(C1CCC(=O)NC1=O)C2=O (stereo partly drawn)",
    "units": "%",
    "inhibition at 10 µM": 95.7
  }
]

Request body: readout inhibition at 10 µM, system GSPT1 protein (Homo sapiens, UniProt P15170+Q96SW2), query O=C1CCC(N2Cc3cc(CNC(=O)[C@H](CC4CCCCC4)NC(=O)OC4CCCC4)ccc3C2=O)C(=O)N1 (stereo partly drawn) . Return the value. 100

Request body: readout inhibition at 10 µM, system GSPT1 protein (Homo sapiens, UniProt P15170+Q96SW2), query O=C1CCC(N2Cc3cc(CNC(=O)C(CNC(=O)OC4CCCC4)c4ccccc4)ccc3C2=O)C(=O)N1 (stereo not drawn) . Return the value. 49

Request body: readout inhibition at 10 µM, system GSPT1 protein (Homo sapiens, UniProt P15170+Q96SW2), query O=C1CCC(N2Cc3cc(CNC(=O)C(CNC(=O)Oc4ccccc4)c4ccccc4)ccc3C2=O)C(=O)N1 (stereo not drawn) . Return the value. 90

Request body: readout inhibition at 10 µM, system GSPT1 protein (Homo sapiens, UniProt P15170+Q96SW2), query CC(C)OC(=O)N[C@@H](CC1CCCCC1)C(=O)NCc1ccc2c(c1)CN(C1CCC(=O)NC1=O)C2=O (stereo partly drawn) . Return the value. 95

Request body: readout inhibition at 10 µM, system GSPT1 protein (Homo sapiens, UniProt P15170+Q96SW2), query CC(C)OC(=O)N[C@@H](Cc1ccccc1)C(=O)NCc1ccc2c(c1)CN(C1CCC(=O)NC1=O)C2=O (stereo partly drawn) . Return the value. 85.8

Request body: readout inhibition at 10 µM, system GSPT1 protein (Homo sapiens, UniProt P15170+Q96SW2), query O=C1CCC(N2Cc3cc(CNC(=O)C(CNC(=O)Nc4ccccc4)c4ccccc4)ccc3C2=O)C(=O)N1 (stereo not drawn) . Return the value. 77

Request body: readout inhibition at 10 µM, system GSPT1 protein (Homo sapiens, UniProt P15170+Q96SW2), query O=C1CCC(N2Cc3cc(CNC(=O)[C@@H](NC(=O)OC4CCCC4)c4ccccc4)ccc3C2=O)C(=O)N1 (stereo partly drawn) . Return the value. 99

Request body: readout inhibition at 10 µM, system GSPT1 protein (Homo sapiens, UniProt P15170+Q96SW2), query CN(C(=O)OC1CCCC1)[C@H](C(=O)NCc1ccc2c(c1)CN(C1CCC(=O)NC1=O)C2=O)c1ccccc1 (stereo partly drawn) . Return the value. 97

Request body: readout inhibition at 10 µM, system GSPT1 protein (Homo sapiens, UniProt P15170+Q96SW2), query CC(C)C1CC[C@H](C)C[C@@H]1OC(=O)N[C@H](C(=O)NCc1ccc2c(c1)CN(C1CCC(=O)NC1=O)C2=O)c1ccccc1 (stereo partly drawn) . Return the value. 90

###

- subject-of-test: GSPT1 protein (Homo sapiens, UniProt P15170+Q96SW2)
- Construct: endogenous in cells; host or cells: Jeko-1
- test-method-notes: Western blot detection of degradation activity of GSPT1 protein in Jeko-1 cells
- Type: cell-based
- condition-label: JeKo-1, 24 h, 100 nM, Jeko-1 cells, 24 hours; read-out: GSPT1 degradation rate (%)
parameter-measured: inhibition at 0.1 µM (%)

[
  {
    "compound": "CC(C)C[C@H](NC(=O)OC(C)(C)C)C(=O)NCc1ccc2c(c1)CN(C1CCC(=O)NC1=O)C2=O (stereo partly drawn)",
    "inhibition at 0.1 µM, %": 52.7
  },
  {
    "compound": "O=C1CCC(N2Cc3cc(CNC(=O)[C@H](CC4CCCCC4)NC(=O)CC4CCCC4)ccc3C2=O)C(=O)N1 (stereo partly drawn)",
    "inhibition at 0.1 µM, %": 79
  },
  {
    "compound": "O=C1CCC(N2Cc3cc(CNC(=O)[C@@H](NC(=O)OCc4ccccc4)c4ccccc4)ccc3C2=O)C(=O)N1 (stereo partly drawn)",
    "inhibition at 0.1 µM, %": 98
  },
  {
    "compound": "CC(C)(C)OC(=O)NC(C(=O)NCc1ccc2c(c1)CN(C1CCC(=O)NC1=O)C2=O)c1ccccc1Cl (stereo not drawn)",
    "inhibition at 0.1 µM, %": 99
  },
  {
    "compound": "CC(C)(C)OC(=O)N[C@H](C(=O)NCc1ccc2c(c1)CN(C1CCC(=O)NC1=O)C2=O)c1ccc(F)c(Cl)c1 (stereo partly drawn)",
    "inhibition at 0.1 µM, %": 93
  }
]

[A] CC(C)(C)NC(=O)NCC(Cc1ccccc1)C(=O)NCc1ccc2c(c1)CN(C1CCC(=O)NC1=O)C2=O (stereo not drawn)
[B] N[C@H](C(=O)NCc1ccc2c(c1)CN(C1CCC(=O)NC1=O)C2=O)c1ccccc1 (stereo partly drawn)
[C] CC(C)(C)OC(=O)N[C@@H](CC(N)=O)C(=O)NCc1ccc2c(c1)CN(C1CCC(=O)NC1=O)C2=O (stereo partly drawn)
[D] CN(C(=O)CC1CCCC1)[C@H](C(=O)NCc1ccc2c(c1)CN(C1CCC(=O)NC1=O)C2=O)c1ccccc1 (stereo partly drawn)
[E] CC(C)CC(CNC(=O)OC(C)(C)C)C(=O)NCc1ccc2c(c1)CN(C1CCC(=O)NC1=O)C2=O (stereo not drawn)
Please put the entries in order of rising inhibition at 0.1 µM. Please list the labels in the order you were asked to rank them. C, B, A, E, D
(C: 11.6%, B: 21%, A: 32%, E: 52%, D: 94.9%)

Where do the numbers come from? From patent US20250214960A1.
